- Tested on: Rattus norvegicus
- assay-protocol: Compound was evaluated in vivo for the rat anaphylaxis leukotriene formation at an oral dose of 30 umol/kg
- Type: functional
Label key: t means ED50 under 2 mg/kg; f means ED50 of 2 mg/kg or more.

>  <compound>
C[C@@H](C#Cc1ccc(Oc2ccc(F)cc2)o1)N(O)C(N)=O

>  <category>
t

$$$$
>  <compound>
C[C@H](C#Cc1ccc(Oc2ccc(F)cc2)o1)N(O)C(N)=O

>  <category>
t

$$$$
>  <compound>
CC(C#Cc1ccc(Cc2ccc(F)cc2)s1)N(O)C(N)=O (configuration not stated)

>  <category>
f

$$$$
>  <compound>
C[C@@H](C#Cc1ccc(Cc2ccc(F)cc2)s1)N(O)C(N)=O

>  <category>
f

$$$$
>  <compound>
CC(c1cc2ccccc2s1)N(O)C(N)=O (configuration not stated) [ZILEUTON]

>  <category>
f

$$$$

Problem: Lab note: ED50 threshold 2 mg/kg. Does this compound come in strictly under it? C[C@H](C#Cc1ccc(Cc2ccc(F)cc2)s1)N(O)C(N)=O [ATRELEUTON]
Solution: f

Problem: Please indicate whether the reported ED50 of CC(C#Cc1ccc(Oc2ccc(F)cc2)o1)N(O)C(N)=O (configuration not stated) is strictly below 2 mg/kg.
Solution: t

* * *

- assay-protocol: Oral bioavailability was determined in guinea pig
- Format: ADME, organism-based, Cavia porcellus
- conditions: in vivo
readout: bioavailability
Lab note: write values as number then unit, every time.

// bioavailability lookup, compound = C[C@H](C#Cc1ccc(Cc2ccc(F)cc2)s1)N(O)C(N)=O , result: 90%

* * *

- assay-protocol: Oral bioavailability was determined in mouse
- Type: ADME, organism-based
- conditions: in vivo
readout: bioavailability
Please answer in the form of a number followed by its unit of measurement.

Briefly, bioavailability measured for C[C@H](C#Cc1ccc(Cc2ccc(F)cc2)s1)N(O)C(N)=O [ATRELEUTON] : 100%

* * *

- system-name: UniProt P09917
- Sequence (P09917 whole entry): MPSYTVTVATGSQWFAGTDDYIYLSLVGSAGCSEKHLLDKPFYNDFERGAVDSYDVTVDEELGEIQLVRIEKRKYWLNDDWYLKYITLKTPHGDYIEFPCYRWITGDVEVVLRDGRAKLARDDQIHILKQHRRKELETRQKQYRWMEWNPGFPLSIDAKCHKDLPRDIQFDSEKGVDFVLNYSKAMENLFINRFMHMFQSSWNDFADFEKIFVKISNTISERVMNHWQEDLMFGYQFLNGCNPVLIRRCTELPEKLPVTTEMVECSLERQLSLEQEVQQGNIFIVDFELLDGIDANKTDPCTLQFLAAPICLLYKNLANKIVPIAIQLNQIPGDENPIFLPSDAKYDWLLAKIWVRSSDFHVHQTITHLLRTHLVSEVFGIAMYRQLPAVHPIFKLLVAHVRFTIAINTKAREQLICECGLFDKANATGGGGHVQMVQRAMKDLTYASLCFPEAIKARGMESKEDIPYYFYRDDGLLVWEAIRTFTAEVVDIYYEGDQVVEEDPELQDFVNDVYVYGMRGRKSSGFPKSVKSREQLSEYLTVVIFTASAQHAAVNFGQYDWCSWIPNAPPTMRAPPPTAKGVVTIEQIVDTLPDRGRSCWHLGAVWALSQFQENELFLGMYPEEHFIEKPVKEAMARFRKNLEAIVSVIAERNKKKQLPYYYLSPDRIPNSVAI
- assay-protocol: 5-lipoxygenase Inhibitory activity was measured by enzyme immunoassay using human whole blood stimulated with calcium ionophore (A23187) and LTB4 (leukotriene B4)
readout: pIC50
// pIC50: -log10(molar conc.)

Please review the entries below; each comes with its answer.
>  <compound>
NC(=O)N(O)CC#Cc1ccc(Cc2ccc(F)cc2)s1

>  <system-name>
UniProt P09917

>  <pIC50>
7.15

$$$$
>  <compound>
CC(C#Cc1ccc(Cc2ccc(F)cc2)s1)N(O)C(N)=O (configuration not stated)

>  <system-name>
UniProt P09917

>  <pIC50>
6.70

$$$$
>  <compound>
NC(=O)N(O)CC#Cc1ccc(Oc2ccc(F)cc2)o1

>  <system-name>
UniProt P09917

>  <pIC50>
7.22

$$$$
>  <compound>
C[C@H](C#Cc1ccc(Oc2ccc(F)cc2)o1)N(O)C(N)=O

>  <system-name>
UniProt P09917

>  <pIC50>
7.10

$$$$

Given item C[C@@H](C#Cc1ccc(Oc2ccc(F)cc2)o1)N(O)C(N)=O , the value recorded as its pIC50 is 7.30

Reported pIC50 for CC(C#Cc1ccc(Oc2ccc(F)cc2)o1)N(O)C(N)=O (configuration not stated) was 7.10

Memo: C[C@@H](C#Cc1ccc(Cc2ccc(F)cc2)s1)N(O)C(N)=O , reported pIC50: 6.70
